# ASSAY SYSTEM: PPK2B (Pseudomonas aeruginosa, UniProt Q9I154)
# Sequence (Q9I154 whole entry): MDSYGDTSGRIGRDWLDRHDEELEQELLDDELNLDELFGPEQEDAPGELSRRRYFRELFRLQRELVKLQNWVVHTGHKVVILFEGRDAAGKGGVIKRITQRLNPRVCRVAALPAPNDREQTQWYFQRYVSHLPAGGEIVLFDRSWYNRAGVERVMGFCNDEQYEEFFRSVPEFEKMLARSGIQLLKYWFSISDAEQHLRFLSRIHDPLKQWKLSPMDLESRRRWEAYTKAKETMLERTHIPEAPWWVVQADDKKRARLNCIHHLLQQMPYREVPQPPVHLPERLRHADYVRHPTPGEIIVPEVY
# EXPERIMENT DESCRIPTION: PPK inhibitor screening assay, PPK2B
# Excerpt: In order to evaluate the inhibitory effect of the compounds on PPKs, the PPK1, PPK2A, PPK2B and PPK2C were used respectively to test the above compounds using a kit described in an article (Liang Peng et al. & Ning Sun (2020) Discovery and antibacterial study of potential PPK1 inhibitors against uropathogenic E. coli, Journal of Enzyme Inhibition and Medicinal Chemistry, 35:1, 1224-1232).
RECORDED METRIC: IC50

> print(dat)
                                item.smiles                              assay.system  recorded.metric  result
1  O=S1(=O)OC2(c3ccccc31)c1ccc(O)c(O)c1Oc1c2ccc(O)c1O  PPK2B (Pseudomonas aeruginosa, UniProt Q9I154)             IC50   31 µM
2  O=c1oc2c(O)c(O)cc3c(=O)oc4c(O)c(O)cc1c4c23  PPK2B (Pseudomonas aeruginosa, UniProt Q9I154)             IC50   48 µM
3  O=C1OC2(c3ccccc31)c1ccc(O)c(O)c1Oc1c2ccc(O)c1O  PPK2B (Pseudomonas aeruginosa, UniProt Q9I154)             IC50   20 µM
4  O=c1oc2c(O)c(O)c(O)c3c(=O)oc4c(O)c(O)cc1c4c23  PPK2B (Pseudomonas aeruginosa, UniProt Q9I154)             IC50   59 µM
